Listing of recorded GI50 by entry.
tested on: M14 melanoma; experiment: NCI tumour cell line growth inhibition, 48 h
OBSERVABLE: GI50

{"columns": ["COMPOUND", "SYSTEM", "RESULT"],
 "data": [
  ["CCCN(CCC)c1ccc(CO)c(C)c1", "M14 melanoma", "> 100 µM"],
  ["CCOC(=O)CC1(O)C=CC(=O)C=C1", "M14 melanoma", "1.67 µg/mL"],
  ["CC1(C)N=C(N)N=C(N)N1c1ccc(F)c(C(F)(F)F)c1", "M14 melanoma", "0.827 µM"],
  ["CC(C)(C)c1ccc([I+]c2ccc(C(C)(C)C)cc2)cc1", "M14 melanoma", "1.47 µM"],
  ["CCCCCCCCCCCCCCCc1cc(O)ccc1N", "M14 melanoma", "> 100 µM"],
  ["CC(C)=CCc1c(O)cc(/C=C/c2cc(O)c3c(c2)C[C@@H]2C(C)(C)[C@H](O)[C@H](O)C[C@@]2(C)O3)cc1O", "M14 melanoma", "0.548 µM"],
  ["C=CC1CC12C(=O)C1OC2(C)C2C(=O)c3c(ccc4c3ccc3ccccc34)C(=O)C12 (stereo unspecified)", "M14 melanoma", "67.3 µM"],
  ["O=C1OCC(C#Cc2ccccc2)=C1Cl", "M14 melanoma", "3.88 µM"],
  ["COc1ccc2c(c1)c(C1(c3cn(C)c4ccc(OC)cc34)C(=O)Nc3ccc(F)cc31)cn2C", "M14 melanoma", "4.19 µM"],
  ["C#C[C@]1(O)CC[C@H]2[C@@H]3CC=C4c5sc(N=C(N)N)nc5CC[C@]4(C)[C@H]3CC[C@@]21C", "M14 melanoma", "0.497 µM"],
  ["CCN(CC)CCOc1ccc(/C=C2\\CC3C4CCC5=CC(=O)CC[C@]5(C)C4CC[C@]3(C)C2=O)cc1OC (stereo partly specified)", "M14 melanoma", "2.08 µM"],
  ["CN1C(=O)CNC(=O)[C@H](NC(=O)c2nc3ccccc3cc2O)CSSC[C@H]1C(=O)NCCc1nc2ccccc2cc1O", "M14 melanoma", "1.03 µM"],
  ["COc1cc(CSc2nc3ccc(C)cc3c(=O)n2Cc2ccccc2)cc(OC)c1OC", "M14 melanoma", "3.08 µM"],
  ["CN1CCN(c2ccc3nc(-c4cc(C(C)(C)C)c(O)c(C(C)(C)C)c4)[nH]c3c2)CC1", "M14 melanoma", "1.68 µM"],
  ["O=C(Nc1ccc(Br)cc1)Nc1n[nH]c2ccccc12", "M14 melanoma", "> 100 µM"],
  ["COCCOC(=O)C1=C(C)NC2=C(C(=O)CC(c3ccccc3OC)C2)C1c1cccc(O)c1 (stereo unspecified)", "M14 melanoma", "11.8 µM"]
]}

* * *

test system: UO-31 renal; assay: NCI tumour cell line growth inhibition, 48 h
Listing of recorded TGI by entry.

{"columns": ["COMPOUND", "INEQUALITY_SYMBOL", "TGI (µM)"],
 "data": [
  ["CN(C)CCn1c2ccccc2c2nc3cc4ccccc4cc3nc21", "=", 18.1],
  ["COC(=O)CCC(=O)c1c(C)[nH]c(/C=C2\\N=C(c3ccc[nH]3)C=C2OC)c1C", "=", 0.866],
  ["CC(=O)OC12c3ccccc3C1CCCCCC21OCCCO1 (stereo not given)", ">", 100],
  ["Cc1cc(N(CCC#N)CCC#N)ccc1/C(N=Nc1cccc([N+](=O)[O-])c1)=N/NC(=O)c1cc(Cl)ccc1O", "=", 70.8],
  ["COc1cnc2c(c1)C(=O)c1c-2n(CCCn2ccnc2)c(=O)c2cc(Cl)ccc12", "=", 2.34],
  ["c1ccc(N=C2SC(=NNc3ccccc3)SC2=Nc2ccccc2)cc1", ">", 100],
  ["ClCCN(CCCl)c1ccc(-n2cnc3c(Cl)ncnc32)cc1", "=", 3.34],
  ["COc1ccc2c(c1)C/C(=C\\c1ccc(O)c(OC)c1)C2=O", ">", 100],
  ["CC(=O)OC1CCn2nnc(COC(=O)NC(C)C)c21 (stereo not given)", ">", 100],
  ["CN(C)CCNc1ccc([N+](=O)[O-])c2nc3ccccc3c(N)c12", "=", 4.27]
]}

Entry source: PubChem BioAssay (NCI)
